Molecular target: FBW7^ARG (RLFBW7) alone (Homo sapiens, UniProt Q969H0, R505L)
Construct: GST (TEV site and flexible linker) (N, cleaved yes); made in house; host or cells: SF9 insect cells (baculovirus)
Sequence (Q969H0 64-707 R505L): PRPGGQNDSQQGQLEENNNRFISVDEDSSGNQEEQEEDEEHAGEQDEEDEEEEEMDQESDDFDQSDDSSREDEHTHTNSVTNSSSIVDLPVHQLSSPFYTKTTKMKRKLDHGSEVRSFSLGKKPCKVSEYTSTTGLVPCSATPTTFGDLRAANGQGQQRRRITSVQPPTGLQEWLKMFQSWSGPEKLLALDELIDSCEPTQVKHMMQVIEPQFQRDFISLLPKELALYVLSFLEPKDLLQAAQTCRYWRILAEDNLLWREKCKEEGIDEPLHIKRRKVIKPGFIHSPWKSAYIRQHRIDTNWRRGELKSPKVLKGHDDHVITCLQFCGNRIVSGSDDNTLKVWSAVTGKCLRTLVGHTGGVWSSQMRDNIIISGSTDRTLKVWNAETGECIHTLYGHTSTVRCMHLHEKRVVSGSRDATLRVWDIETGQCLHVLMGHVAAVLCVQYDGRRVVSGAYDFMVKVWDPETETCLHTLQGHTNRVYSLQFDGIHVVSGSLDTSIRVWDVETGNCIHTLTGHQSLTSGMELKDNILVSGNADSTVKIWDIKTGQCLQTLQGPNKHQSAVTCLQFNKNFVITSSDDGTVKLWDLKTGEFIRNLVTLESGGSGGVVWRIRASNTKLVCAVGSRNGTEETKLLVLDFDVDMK
Sequence (P63208 2-163 partner): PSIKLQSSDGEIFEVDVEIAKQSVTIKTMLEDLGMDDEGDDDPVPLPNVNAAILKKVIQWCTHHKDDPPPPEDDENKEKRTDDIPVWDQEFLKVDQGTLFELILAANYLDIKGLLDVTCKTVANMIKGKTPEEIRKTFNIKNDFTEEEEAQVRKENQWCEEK
Assay: Counterscreen 1 ALPHAscreen with FBW7^ARG alone (CSRUN1/DCSRUN1)
Assay type: binding
Conditions: dose-response counterscreen, read-out: RLFBW7 ACT DCSRUN1 Final EC50
test readout: EC50

Some solved entries appear below for comparison.
INSERT INTO measurements (compound, reported_measurement) VALUES
  ('O=C([C@H]1CC[C@H](Nc2nccc(-c3ccc4nc(C5CC5)nc(O)c4c3)n2)CC1)N1CCCC1', '> 65.3 µM'),
  ('CCSCCOC(=O)C1=C(C)NC2=C(C(=O)CC(c3ccccc3)C2)C1c1ccc(OC)cc1OC (stereo not shown)', '> 41.4 µM'),
  ('Cc1ccc(-c2cccc3cnc(Nc4ccc(-n5cnc(-c6ccccn6)n5)cc4)nc23)cn1.O=C(O)C(F)(F)F', '> 65.3 µM'),
  ('CCCCCCCC(=O)Nc1ccc(C(=O)Nc2ccc(O)c(C(=O)O)c2)cc1', '> 49.3 µM'),
  ('CC1=C(C(=O)OCCc2ccccc2)C(c2ccc(Cl)cc2Cl)C2=C(CC(C)(C)CC2=O)N1 (stereo not shown)', '> 45.8 µM');

Query block: What EC50 value was documented for this compound, CC(NC(=O)c1cnc2ccccn12)c1ccc(F)cc1 (stereo not shown) ?
Result block: > 65.3 µM

Query block: Quick one: EC50 for `Cc1c(NC(=O)/C(=C\c2ccccc2)NC(=O)c2ccccc2)c(=O)n(-c2ccccc2)n1C` ?
Result block: > 56.7 µM

Query block: I am curious: what EC50 value has been reported for `CCCOc1ccc(C2C(C(=O)OC)=CN(CCOC)C=C2C(=O)OC)cc1` ?
Result block: > 65.3 µM

Query block: I would be grateful if you could share the reported EC50 for COc1ccc(COC(=O)C2=C(C)NC3=C(C(=O)CC(C)(C)C3)C2c2ccccc2)cc1 (stereo not shown) .
Result block: > 62.2 µM

Query block: Which EC50 is reported for this compound? COCCOC(=O)C1=C(C)NC2=C(C(=O)CC(c3ccccc3)C2)C1c1ccc(OCc2ccccc2)cc1 (stereo not shown)
Result block: > 51.3 µM

Query block: So what's the measured EC50 for this one? `CCOC(=O)C1CCN(C(=O)Nc2ccc(NC(=O)C3CCN(C(=O)OCC)CC3)cc2)CC1`
Result block: > 45.3 µM

Query block: Query: EC50; subject: `COc1ccc(SCC(=O)NNC(=S)Nc2ccccc2)cc1`
Result block: > 56.6 µM

Data provenance is patent US20210047278A1.
